Reported Eos values for the following compounds.
- Species on record: Rattus norvegicus
- protocol: Open TG-GATES - Regimen: Single
- Format: toxicity, organism-based, Sprague-Dawley
- Design: regimen Single, gender Male, age 6 weeks
- condition.parameters: in vivo, po, 10 mg/kg, 24 h, tissue Blood, route gavage, dose level Low

compound	scale.unit	Eos
CC(C)OC(=O)C(C)(C)Oc1ccc(C(=O)c2ccc(Cl)cc2)cc1 [FENOFIBRATE]	%	1
CC1=C(/C=C/C(C)=C/C=C/C(C)=C/CO)C(C)(C)CCC1	%	1
CN(C)CCCN1c2ccccc2CCc2ccccc21	%	0.4
CN(C)CCCN1c2ccccc2CCc2ccc(Cl)cc21	%	1
CN(C)CCN(Cc1cccs1)c1ccccn1	%	0.5

###

- Species on record: Rattus norvegicus
- protocol: Open TG-GATES - Regimen: Single
- Assay type: toxicity, organism-based, Sprague-Dawley
- Set-up: regimen Single, gender Male, age 6 weeks
- condition.parameters: in vivo, po, 100 mg/kg, 9 h, tissue Plasma, route gavage, dose level Low
Reported TG values for the following molecules.
readout.kind: TG (mg/dL)

molecule	readout.kind	endpoint.result
COC1=CC(=O)C[C@@H](C)[C@]12Oc1c(Cl)c(OC)cc(OC)c1C2=O	TG	48
COc1ccc2[nH]c([S+]([O-])Cc3ncc(C)c(OC)c3C)nc2c1 (centres undefined)	TG	68.6
CCOC(=O)CCC(=O)O[C@H]1[C@H](O[C@@H]2[C@@H](C)[C@H](O[C@H]3C[C@@](C)(OC)[C@@H](O)[C@H](C)O3)[C@@H](C)C(=O)O[C@H](CC)[C@@](C)(O)[C@H](O)[C@@H](C)C(=O)[C@H](C)C[C@@]2(C)O)O[C@H](C)C[C@@H]1N(C)C [ERYTHROMYCIN ETHYLSUCCINATE]	TG	87.4
NC(N)=Nc1nc(CSCCC(N)=NS(N)(=O)=O)cs1	TG	62.4

###

Reported IP values for the following compounds.
- Species: Rattus norvegicus
- protocol: Open TG-GATES - Regimen: Single
- Format: toxicity, organism-based, Sprague-Dawley
- Parameters: regimen Single, gender Male, age 6 weeks
- condition.parameters: in vivo, po, 0 mg/kg, 24 h, tissue Plasma, route gavage, dose level Control
readout.kind: IP

compound	readout.kind	endpoint.result
CCCNC(=O)NS(=O)(=O)c1ccc(Cl)cc1 [CHLORPROPAMIDE]	IP	8.5 mg/dL
CC1=C(/C=C/C(C)=C/C=C/C(C)=C/CO)C(C)(C)CCC1	IP	6.4 mg/dL
O=C(CCCN1CCC(O)(c2ccc(Cl)cc2)CC1)c1ccc(F)cc1	IP	8.2 mg/dL
CC(C)OC(=O)C(C)(C)Oc1ccc(C(=O)c2ccc(Cl)cc2)cc1 [FENOFIBRATE]	IP	8.5 mg/dL
CN(C)CCCN1c2ccccc2CCc2ccccc21	IP	8.1 mg/dL
COc1ccc2[nH]c([S+]([O-])Cc3ncc(C)c(OC)c3C)nc2c1 (centres undefined)	IP	7.7 mg/dL
CN(C)CCN(Cc1cccs1)c1ccccn1	IP	7.4 mg/dL
NNC(=O)c1ccncc1	IP	7.7 mg/dL
COC1=CC(=O)C[C@@H](C)[C@]12Oc1c(Cl)c(OC)cc(OC)c1C2=O	IP	7.5 mg/dL

###

- Species on record: Rattus norvegicus
- protocol: Open TG-GATES - Regimen: Daily Repeat
- Type: toxicity, organism-based, Sprague-Dawley
- Parameters: regimen Daily Repeat, gender Male, age 6 weeks
- condition.parameters: in vivo, po, 1000 mg/kg, […], tissue Plasma, route gavage, dose level High, time 28 day
Reported Na values for the following compounds.

compound	Na (meq/L)
COC1=CC(=O)C[C@@H](C)[C@]12Oc1c(Cl)c(OC)cc(OC)c1C2=O	140.6
NC(N)=Nc1nc(CSCCC(N)=NS(N)(=O)=O)cs1	141.6
CCOC(=O)CCC(=O)O[C@H]1[C@H](O[C@@H]2[C@@H](C)[C@H](O[C@H]3C[C@@](C)(OC)[C@@H](O)[C@H](C)O3)[C@@H](C)C(=O)O[C@H](CC)[C@@](C)(O)[C@H](O)[C@@H](C)C(=O)[C@H](C)C[C@@]2(C)O)O[C@H](C)C[C@@H]1N(C)C [ERYTHROMYCIN ETHYLSUCCINATE]	141.8
COc1ccc2[nH]c([S+]([O-])Cc3ncc(C)c(OC)c3C)nc2c1 (stereo not given)	142.6
CCOc1ccc(NC(=O)CC(C)O)cc1 (stereo not given)	143.8

###

- Species on record: Rattus norvegicus
- protocol: Open TG-GATES - Regimen: Daily Repeat
- Format: toxicity, organism-based, Sprague-Dawley
- Set-up: regimen Daily Repeat, gender Male, age 6 weeks
- condition.parameters: in vivo, po, 100 mg/kg, 72 h, tissue Plasma, route gavage, dose level Low, time 3 day

compound	BUN [mg/dL]
COC1=CC(=O)C[C@@H](C)[C@]12Oc1c(Cl)c(OC)cc(OC)c1C2=O [GRISEOFULVIN]	14.6
NC(N)=Nc1nc(CSCCC(N)=NS(N)(=O)=O)cs1 [FAMOTIDINE]	16.6
CCOC(=O)CCC(=O)O[C@H]1[C@H](O[C@@H]2[C@@H](C)[C@H](O[C@H]3C[C@@](C)(OC)[C@@H](O)[C@H](C)O3)[C@@H](C)C(=O)O[C@H](CC)[C@@](C)(O)[C@H](O)[C@@H](C)C(=O)[C@H](C)C[C@@]2(C)O)O[C@H](C)C[C@@H]1N(C)C [ERYTHROMYCIN ETHYLSUCCINATE]	18
COc1ccc2[nH]c([S+]([O-])Cc3ncc(C)c(OC)c3C)nc2c1 (stereo not given) [OMEPRAZOLE]	15.2
CCOc1ccc(NC(=O)CC(C)O)cc1 (stereo not given) [BUCETIN]	14.4

###

- Species: Rattus norvegicus
- protocol: Open TG-GATES - Regimen: Single
- Type: toxicity, organism-based, Sprague-Dawley
- Set-up: regimen Single, gender Male, age 6 weeks
- condition.parameters: in vivo, po, 1000 mg/kg, 9 h, tissue Plasma, route gavage, dose level High
readout.kind: K (meq/L)

compound	endpoint.result
COc1ccc2[nH]c([S+]([O-])Cc3ncc(C)c(OC)c3C)nc2c1 (centres undefined) [OMEPRAZOLE]	3.8
CCOC(=O)CCC(=O)O[C@H]1[C@H](O[C@@H]2[C@@H](C)[C@H](O[C@H]3C[C@@](C)(OC)[C@@H](O)[C@H](C)O3)[C@@H](C)C(=O)O[C@H](CC)[C@@](C)(O)[C@H](O)[C@@H](C)C(=O)[C@H](C)C[C@@]2(C)O)O[C@H](C)C[C@@H]1N(C)C [ERYTHROMYCIN ETHYLSUCCINATE]	4.2
COC1=CC(=O)C[C@@H](C)[C@]12Oc1c(Cl)c(OC)cc(OC)c1C2=O [GRISEOFULVIN]	3.9
CC(C)OC(=O)C(C)(C)Oc1ccc(C(=O)c2ccc(Cl)cc2)cc1 [FENOFIBRATE]	3.8

###

Reported Ht values for the following compounds.
- Organism: Rattus norvegicus
- protocol: Open TG-GATES - Regimen: Single
- Assay type: toxicity, organism-based, Sprague-Dawley
- Design: regimen Single, gender Male, age 6 weeks
- condition.parameters: in vivo, po, 0 mg/kg, 9 h, tissue Blood, route gavage, dose level Control

compound	scale.unit	Ht
CN(C)CCN(Cc1cccs1)c1ccccn1	%	39.3
CCCNC(=O)NS(=O)(=O)c1ccc(Cl)cc1 [CHLORPROPAMIDE]	%	39.6
C[C@@H]1C[C@H]2[C@@H]3CCC4=CC(=O)C=C[C@]4(C)[C@@]3(F)[C@@H](O)C[C@]2(C)[C@@]1(O)C(=O)CO [DEXAMETHASONE]	%	39.9
CC/C(=C(\c1ccccc1)c1ccc(OCCN(C)C)cc1)c1ccccc1 [TAMOXIFEN]	%	38.4
CCOc1ccc(NC(=O)CC(C)O)cc1 (stereo unspecified) [BUCETIN]	%	39.1
CN(C)CCCN1c2ccccc2CCc2ccccc21 [IMIPRAMINE]	%	40.1

###

- Organism: Rattus norvegicus
- protocol: Open TG-GATES - Regimen: Daily Repeat
- Format: toxicity, organism-based, Sprague-Dawley
- Parameters: regimen Daily Repeat, gender Male, age 6 weeks
- condition.parameters: in vivo, po, 1000 mg/kg, […], tissue Plasma, route gavage, dose level High, time 28 day

compound	ALT (IU/L)
COC1=CC(=O)C[C@@H](C)[C@]12Oc1c(Cl)c(OC)cc(OC)c1C2=O	39.2
CC(C)OC(=O)C(C)(C)Oc1ccc(C(=O)c2ccc(Cl)cc2)cc1 [FENOFIBRATE]	55.8
CCOC(=O)CCC(=O)O[C@H]1[C@H](O[C@@H]2[C@@H](C)[C@H](O[C@H]3C[C@@](C)(OC)[C@@H](O)[C@H](C)O3)[C@@H](C)C(=O)O[C@H](CC)[C@@](C)(O)[C@H](O)[C@@H](C)C(=O)[C@H](C)C[C@@]2(C)O)O[C@H](C)C[C@@H]1N(C)C [ERYTHROMYCIN ETHYLSUCCINATE]	37
NC(N)=Nc1nc(CSCCC(N)=NS(N)(=O)=O)cs1	36.2
CCOc1ccc(NC(=O)CC(C)O)cc1 (stereo not given)	36.4
